Reported EC50 values are given for each entry in this list.
target: ExsA (Pseudomonas aeruginosa, UniProt P26993)
Sequence (P26993 whole entry): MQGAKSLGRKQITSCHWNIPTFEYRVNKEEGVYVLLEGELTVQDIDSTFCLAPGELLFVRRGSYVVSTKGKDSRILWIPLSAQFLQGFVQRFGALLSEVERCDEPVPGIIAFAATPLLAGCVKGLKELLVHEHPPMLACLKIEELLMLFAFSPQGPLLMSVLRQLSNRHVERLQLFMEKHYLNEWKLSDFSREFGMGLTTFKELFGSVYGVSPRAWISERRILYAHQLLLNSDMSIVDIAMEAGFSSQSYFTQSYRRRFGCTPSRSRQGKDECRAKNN
test_name: In vitro activity of Mar inhibitors against ExsA: cell-free DNA binding assay
condition_context: purified ExsA from P. aeruginosa, inhibition of DNA binding in vitro

{"compound": "CC(=O)c1ccc(C(=O)Nc2ccc(-c3nc4ccc([N+](=O)[O-])cc4n3O)cc2C)cc1", "measured_value": "< 10 µM"}

Param item = O=C(Nc1ccc(-c2nc3ncc([N+](=O)[O-])cc3n2O)cc1)c1ccc(F)cc1 ; retrieve measured EC50.
10.1 to 25 µM

Same read-out for O=C(/C=C/c1ccc(-n2ccnc2)cc1)Nc1ccc(-c2nc3ccc([N+](=O)[O-])cc3n2O)cc1 ?
< 10 µM
